# credit: PubChem BioAssay (NCI)

Test system: HCC-2998 colon
Assay: NCI-60 one-dose screen, 48 h (100 = growth as untreated, 0 = no growth, -100 = all killed)
Conditions: 10 µM unless noted
Compounds without any hit were thinned out: in the full panel of roughly 83,000, 20% have a hit.
Listed compounds paired with reported growth
metric: growth (%)

1) COc1cc(C2CC(=O)c3c(C)nn(-c4nc5ccccc5[nH]4)c3C2)cc(OC)c1OC (stereo unspecified) :: 82.4
2) O=S(=O)(NCCCNc1cc(-c2cn(-c3ccccc3)nc2-c2ccccc2)ccn1)c1ccc(C(F)(F)F)cc1 :: 64.1
3) CCN(CC)CC(O)c1cc(-c2ccc(Cl)cc2)nc2c(C)c(Cl)ccc12 (stereo unspecified) :: -97.4
4) O=C(O)c1cn(C2CC2)c2cc(N3CCN(Cc4nc5c(cnn5-c5ccc([N+](=O)[O-])cc5)c(=O)[nH]4)CC3)c(F)cc2c1=O :: 112
5) COCCCN=C(N)c1ccc(NC(=O)c2ccc(C(=O)Nc3ccc(C(N)=NCCCOC)cc3)cc2)cc1 :: 116
6) O=C1O[C@H]([C@H](O)CO)C(O)=C1O :: 98.3
7) c1ccc(-c2nc(N3CCOCC3)c3c4c(sc3n2)CCCCC4)nc1 :: 83
8) O=c1c2cccc3c(Nc4ccccn4)ccc(c32)c2nc3ccccc3n12 :: 68.5
9) COc1cc(NCCCCN=C(N)NC(N)=NC(C)C)c2ncccc2c1 :: 11.9
10) CCOC(=O)C(=Cc1ccccc1F)C(=O)OCC :: 110
11) CCCCCn1cnc2c(=S)nc[nH]c21 :: 122
12) CC(C)c1c(C(=O)Nc2ccccc2)c(-c2ccccc2)c(-c2ccc(F)cc2)n1CC[C@@H]1CC=CC(=O)O1 :: -69.8
13) O=C(CN1CCN(c2cc3c(cc2F)c(=O)c(C(=O)N/N=C/c2ccccc2)cn3C2CC2)CC1)N/N=C\c1ccccc1 :: 91
14) O=C1C(=O)N(CCCCn2cc(CO)nn2)c2ccccc21 :: 107
15) C=C1C(=O)O[C@H]2[C@H]1CC/C(Cn1cc(Cc3c[nH]c4ccccc34)nn1)=C\CC[C@@]1(C)O[C@@H]21 :: 61.5
16) Cc1ccc2c(c1)C(=O)c1c-2c(OCCCN(C)C)nc2ccccc12 :: -15.2
17) COc1cc(OC)c(/C=C/C(=O)c2c(OC)cc(OC)cc2OC)c(OC)c1 :: 30.3
18) CCN(C(=O)CN1CCN(c2cc3c(cc2F)c(=O)c(C(=O)O)cn3CC)CC1)c1nc(-c2ccccc2)cs1 :: 19.6
19) O=C(O)c1cccc2c1-c1ccccc1C2=O :: 99
20) N=c1c2ccccc2nc2n1CCCCC2 :: 106
21) CC#CC#Cc1cccc(=O)o1 :: 95.8
22) O=C(CCCCN1CCOCC1)Nc1ccc(Cn2nnc3c2C(=O)c2nnn(Cc4ccc(NC(=O)CCCCN5CCOCC5)cc4)c2C3=O)cc1 :: -62.3
23) CC(=O)OCC(=O)C1CCC=CC1OC(C)=O (stereo unspecified) :: 102
24) COc1ccc(-c2nn(-c3ccccc3)cc2/C=C2\SC(=O)NC2=O)cc1 :: 109
25) COc1ccc2nc3cc(Cl)ccc3c(N3CCN(c4ccnc(N5CCOCC5)n4)CC3)c2c1 :: 12.9
26) COc1cc(C2CC(=O)Nc3c2c(C)nn3-c2nc3ccccc3[nH]2)cc(OC)c1OC (stereo unspecified) :: 93.7
27) CC[C@H](Nc1ncnc(N)c1C(N)=O)c1nc2cccc(NCc3ccc(C(=O)NO)cc3)c2c(=O)n1-c1ccccc1 :: 86.1
28) CCCCN(CCCC)Cc1c(C)[nH]c2cc(OC)ccc2c1=O :: 94.6
29) CS(CCCCN=C=S)=NC(=O)c1c(F)c(F)c(F)c(F)c1F (stereo unspecified) :: 104
30) CCOC(=O)c1cnc2cc(Cl)c(F)cc2c1Nc1cccc(NS(C)(=O)=O)c1 :: 98.4
31) O=C1C=CC(=O)N1c1ccc(Cc2ccc(N3C(=O)C=CC3=O)cc2)cc1 :: 102
32) COc1cccc(NC(=O)c2sc3nc4c(cc3c2N)CN(Cc2ccccc2)CC4)c1 :: 77.3
33) COC1/C=C\OC2(C)Oc3c(C)c(O)c4c(O)c(c(CN(C)CCO)c(O)c4c3C2=O)NC(=O)/C(C)=C\C=C/C(C)C(O)C(C)C(O)C(C)C(OC(C)=O)C1C (stereo unspecified) :: 121
34) CCOC(=O)c1cnc2ccc(OC)cc2c1Nc1cccc(S(=O)(=O)NC)c1 :: 101
35) OCCNCCNc1c2ccccc2nc2ccccc12 :: 52.6
36) O=C1c2ccccc2-c2nccc3cc(Cl)nc1c23 :: 101
37) COc1ccc(-c2cc(C(=O)N=Nc3c(O)[nH]c4ccccc34)no2)cc1 :: 107
38) c1ccc(CSc2ncnc3nc[nH]c23)nc1 :: 125
39) O=C(N/N=C/c1ccc(O)cc1O)c1cccnc1 :: 35.1
40) Nc1cc(O)cc2cccnc12 :: 100
41) CCOC(=O)Cc1cnn(C)c1NC(=O)c1ccc(Cl)cc1NC(C)=O :: 107

----------
System: NCI/ADR-RES ovarian
Assay: NCI-60 one-dose screen, 48 h (100 = growth as untreated, 0 = no growth, -100 = all killed)
Conditions: 10 µM unless noted
Protocol: Growth inhibition of the NCI/ADR-RES human […] tumor cell line is measured as a screen for anti-cancer activity. Cells are grown in 96 well plates and exposed to the test compound for 48 hours. Compounds are tested at a single concentration, which is 10^-5 M for most compounds. The reported endpoint is percent growth (GI% or GIPRCNT), where numbers from 0 - 100% represent growth inhibition, and numbers from -100% - 0 represent cell death. For example, a value of 40 represents 60% growth inhibition. […]
About 83,000 compounds went through this panel and 20% of them were active in at least one assay; those are over-represented in the sample as a whole.
This section presents compounds with their documented growth values.
metric: growth (%)

1) O=C1c2c[n+](Cc3ccccc3)ccc2-c2nc3ccccc3c3ccnc1c23 :: 75.9
2) CN(C)CC(=O)Nc1ccc(Cn2nnc3c2C(=O)c2nnn(Cc4ccc(NC(=O)CN(C)C)cc4)c2C3=O)cc1 :: 88.6
3) COc1ccc(-c2c3c(nc4n[nH]c(-c5ccc(Cl)cc5)c24)-c2ccccc2C(=O)C3=O)cc1 :: -3.63
4) COc1ccc2nc3cc(Cl)ccc3c(N3CCN(c4nccc(Nc5ccccc5)n4)CC3)c2c1 :: 69.9
5) Nc1nc(-c2ccc(F)cc2)cc(-c2cnn(-c3ccccc3)n2)n1 :: 106
6) CCN(C(=O)CN1CCN(c2cc3c(cc2F)c(=O)c(C(=O)O)cn3CC)CC1)c1nc(-c2ccccc2)cs1 :: 5.3
7) Cc1ccc(/C=C2\Oc3cc(OCC(=O)c4ccc(Cl)cc4)ccc3C2=O)cc1 :: 102
8) Cc1csc2ccc(Cl)cc12 :: 103
9) O=C(CCCCN1CCOCC1)Nc1ccc(Cn2nnc3c2C(=O)c2nnn(Cc4ccc(NC(=O)CCCCN5CCOCC5)cc4)c2C3=O)cc1 :: 11

----------
Test system: SF-295 CNS
Test: NCI-60 one-dose screen, 48 h (100 = growth as untreated, 0 = no growth, -100 = all killed)
Details: 10 µM unless noted
About 83,000 compounds went through this panel and 20% of them were active in at least one assay; those are over-represented in the sample as a whole.
Use growth to assign classes; range list: group A: < 40%; group B: ≥ 40% and < 90%; group C: ≥ 90%

1. O=C(CO[N+](=O)[O-])Nc1ccc(C(=O)/C=C/c2ccc3c(c2)OCO3)cc1 :: group B
2. CC(C)(C)n1cc(-c2ccnc(NCCNS(=O)(=O)c3ccccc3)c2)c(-c2cccc(O)c2)n1 :: group B
3. O=[N+]([O-])c1cccc(-c2nc3sccn3c2-c2ccnc(NCCNS(=O)(=O)c3ccc(C(F)(F)F)cc3)n2)c1 :: group A
4. CC[C@@H](C)OC(=O)c1nn(C(C)=O)c2ccccc12 :: group C
5. CCN(C(=O)CN1CCN(c2cc3c(cc2F)c(=O)c(C(=O)O)cn3C2CC2)CC1)c1nc(-c2ccc(OC)cc2)cs1 :: group C
6. COc1ccc(S(=O)(=O)NCCCNc2nccc(-c3c(-c4cccc(N)c4)nc4sccn34)n2)cc1 :: group C
7. Cc1cc(Nc2nc(N3CCOCC3)nc3ccccc23)n[nH]1 :: group B
8. CNCCCn1c2c(c3ccc([N+](=O)[O-])cc3c1=O)C(=O)c1cc(OC)cnc1-2 :: group A
9. O=C(CN1CCN(c2cc3c(cc2F)c(=O)c(C(=O)O)cn3C2CC2)CC1)Nc1nc(-c2ccc(Cl)cc2)cs1 :: group A

----------
System: HCT-15 colon
Test: NCI-60 one-dose screen, 48 h (100 = growth as untreated, 0 = no growth, -100 = all killed)
Details: 10 µM unless noted
The panel holds about 83,000 compounds, 20% with a hit somewhere; the sample as a whole holds those more often.
metric: growth (%)

1. CCN(C(=O)CN1CCN(c2cc3c(cc2F)c(=O)c(C(=O)O)cn3CC)CC1)c1nc(-c2ccccc2)cs1 :: 12.3
2. CC1=NNC(=O)C1C (stereo unspecified) :: 98.7
3. CCOC(=O)C(C#N)C1CCCCC1 (stereo unspecified) :: 95.9
4. Cc1ccc2c(c1)O/C(=C\c1cccc(OCC(=O)c3ccccc3)c1)C2=O :: 69.8
5. CN(C)CCOc1ccc(-c2nc3ccc(-c4nc5ccc(N6CCN(C)CC6)cc5[nH]4)cc3[nH]2)cc1 :: 101
6. C[C@]12C[C@@H](c3ccoc3)OC(=O)[C@@H]1CC[C@]1(C)[C@@H]2CC[C@@H](O)[C@]1(C)O :: 85.4
7. CC1(C)OCC2OC3(C(=O)O)OC(C)(C)OC3C2O1 (stereo unspecified) :: 99.6
8. CC1=C(NCCN2CCCC2)C(=O)c2c(OCc3ccc(C(F)(F)F)cc3)cccc2C1=O :: 70.9
9. CCOC(=O)CC(C)=N :: 105
10. O=C1C2CC=CCC2C(=O)N1CNc1ccc(Cl)cc1 (stereo unspecified) :: 89.6
11. CCC(c1ccc(O)cc1)C(CC)c1ccc(O)c(F)c1 (stereo unspecified) :: 78.2
